- Tested on: MV4-11
- assay info: Antiproliferative activity against human MV4-11 cells assessed as inhibition of cell growth incubated for 72 hrs by Celltiter-Glo luminescent assay
- Assay type: functional, cell-based
- condition details: MV4-11, 72 h
pIC50: −log10 of the molar value.

smiles repr: COc1ccc(F)cc1-c1ccnc(Nc2ccc3c(N4CCOCC4)c(C(C)=O)c(=O)oc3c2)n1
pIC50: 5.76
--
smiles repr: COc1ccccc1-c1ccnc(Nc2ccc3c(N4CCCNCC4)cc(=O)oc3c2)n1
pIC50: 5.77
--
smiles repr: CCN1CCN(c2c(C(C)=O)c(=O)oc3cc(Nc4nccc(-c5ccc(F)cc5OC)n4)ccc23)CC1
pIC50: 6.13
--
smiles repr: CCN1CCN(c2c(C(C)=O)c(=O)oc3cc(Nc4ncc(F)c(-c5ccc(F)cc5OC)n4)ccc23)CC1
pIC50: 6.26

---

Recorded measurements of pIC50, one per entry
- target desc: CDK9/cyclin T1 (Homo sapiens)
- Sequence (O60563 whole entry): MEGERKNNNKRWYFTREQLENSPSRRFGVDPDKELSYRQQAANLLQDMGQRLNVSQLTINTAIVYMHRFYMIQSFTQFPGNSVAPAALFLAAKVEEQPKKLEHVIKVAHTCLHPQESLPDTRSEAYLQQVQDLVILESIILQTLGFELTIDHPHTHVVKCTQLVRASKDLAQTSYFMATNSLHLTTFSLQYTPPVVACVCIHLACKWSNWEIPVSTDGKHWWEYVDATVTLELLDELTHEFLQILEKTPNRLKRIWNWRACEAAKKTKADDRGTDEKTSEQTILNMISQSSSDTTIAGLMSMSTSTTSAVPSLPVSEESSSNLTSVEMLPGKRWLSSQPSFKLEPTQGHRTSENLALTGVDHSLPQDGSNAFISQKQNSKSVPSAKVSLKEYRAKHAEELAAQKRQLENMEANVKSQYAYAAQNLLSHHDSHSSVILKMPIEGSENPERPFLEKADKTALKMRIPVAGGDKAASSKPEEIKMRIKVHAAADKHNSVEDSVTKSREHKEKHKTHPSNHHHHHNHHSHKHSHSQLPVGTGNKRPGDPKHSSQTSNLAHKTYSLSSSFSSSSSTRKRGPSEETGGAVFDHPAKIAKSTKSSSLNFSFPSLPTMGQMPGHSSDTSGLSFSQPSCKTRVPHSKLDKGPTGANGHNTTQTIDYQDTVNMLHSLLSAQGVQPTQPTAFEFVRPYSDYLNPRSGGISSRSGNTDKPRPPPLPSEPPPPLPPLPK
- Sequence (P50750 whole entry): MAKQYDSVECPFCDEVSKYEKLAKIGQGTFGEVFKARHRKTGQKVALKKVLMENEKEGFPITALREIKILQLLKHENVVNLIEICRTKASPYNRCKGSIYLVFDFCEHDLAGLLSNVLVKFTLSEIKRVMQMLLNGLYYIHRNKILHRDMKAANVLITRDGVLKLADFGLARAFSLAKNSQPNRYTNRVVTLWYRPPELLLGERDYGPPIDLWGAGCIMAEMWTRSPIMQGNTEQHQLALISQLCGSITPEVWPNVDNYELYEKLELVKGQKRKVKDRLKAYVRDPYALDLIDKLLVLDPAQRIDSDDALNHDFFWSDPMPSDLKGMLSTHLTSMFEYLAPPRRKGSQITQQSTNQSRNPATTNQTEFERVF
- assay info: Inhibition of CDK9/Cyclin T1 (unknown origin) preincubated for 20 mins followed by ATP addition and measured after 120 mins in presence of [33P-gamma] ATP by hotspot kinase assay
pIC50: −log10 of the molar value.
result type: pIC50

smiles repr: COc1ccc(-c2ccnc(Nc3ccc4c(N5CCOCC5)c(C(C)=O)c(=O)oc4c3)n2)cc1
target desc: CDK9/cyclin T1 (Homo sapiens)
recorded measurement: 7.09
--
smiles repr: COc1cc(F)ccc1-c1ccnc(Nc2ccc3c(N4CCOCC4)cc(=O)oc3c2)n1
target desc: CDK9/cyclin T1 (Homo sapiens)
recorded measurement: 7.74
--
smiles repr: COc1ccccc1-c1cc(Nc2ccc3c(C)c(C(C)=O)c(=O)oc3c2)ncn1
target desc: CDK9/cyclin T1 (Homo sapiens)
recorded measurement: 7.42
--
smiles repr: CC(=O)c1c(N2CCOCC2)c2ccc(Nc3nccc(-c4ccccc4)n3)cc2oc1=O
target desc: CDK9/cyclin T1 (Homo sapiens)
recorded measurement: 6.64
--
smiles repr: CCC(=O)c1c(N2CCOCC2)c2ccc(Nc3ncc(F)c(-c4ccc(F)cc4OC)n3)cc2oc1=O
target desc: CDK9/cyclin T1 (Homo sapiens)
recorded measurement: 9.15

---

- assay info: AUC (0 to infinity) in ICR mouse at 2 mg/kg, iv measured up to 24 hrs by LC-MS/MS analysis
- Type: ADME, organism-based
- Design: route intravenous, dose 2 mg/kg, time <=24
- condition details: in vivo
result type: AUC(0-inf) (ng·h/mL)

smiles repr: COc1cc(F)ccc1-c1nc(Nc2ccc3c(N4CCOCC4)c(C(C)=O)c(=O)oc3c2)ncc1F
result type: AUC(0-inf)
recorded measurement: 561

---

- target desc: Cyclin-dependent kinase 5/CDK5 activator 1 (Homo sapiens)
- Sequence (Q00535 whole entry): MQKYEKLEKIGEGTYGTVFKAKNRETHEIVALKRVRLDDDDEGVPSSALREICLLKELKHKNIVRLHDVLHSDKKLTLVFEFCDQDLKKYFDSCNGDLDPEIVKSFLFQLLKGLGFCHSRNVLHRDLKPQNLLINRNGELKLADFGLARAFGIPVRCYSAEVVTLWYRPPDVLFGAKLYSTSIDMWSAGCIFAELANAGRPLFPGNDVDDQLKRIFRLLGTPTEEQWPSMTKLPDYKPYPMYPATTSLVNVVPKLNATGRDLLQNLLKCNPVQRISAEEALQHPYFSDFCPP
- Sequence (Q15078 whole entry, further chain): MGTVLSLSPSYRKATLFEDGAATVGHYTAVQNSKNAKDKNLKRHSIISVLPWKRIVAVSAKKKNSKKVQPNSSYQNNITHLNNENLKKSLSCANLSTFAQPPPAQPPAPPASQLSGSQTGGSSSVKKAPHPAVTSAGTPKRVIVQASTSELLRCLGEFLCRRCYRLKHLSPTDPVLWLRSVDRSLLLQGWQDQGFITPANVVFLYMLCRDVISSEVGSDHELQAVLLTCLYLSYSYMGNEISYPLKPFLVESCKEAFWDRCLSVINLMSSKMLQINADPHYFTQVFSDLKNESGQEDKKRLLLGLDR
- assay info: Inhibition of CDK5/p25 (unknown origin) preincubated for 20 mins followed by ATP addition and measured after 120 mins in presence of [33P-gamma] ATP by hotspot kinase assay
- Type: protein-complex assay

smiles repr: COc1cc(F)ccc1-c1nc(Nc2ccc3c(N4CCOCC4)c(C(C)=O)c(=O)oc3c2)ncc1F
unit abbrev: nM
IC50: 1260

---

- assay info: AUC (0 to t) in ICR mouse at 30 mg/kg, po measured up to 24 hrs by LC-MS/MS analysis
- Type: ADME, organism-based
- Design: route oral, dose 30 mg/kg, time <=24
- condition details: in vivo
result type: AUC(0-t) at 24 h (ng·h/mL)

smiles repr: COc1cc(F)ccc1-c1nc(Nc2ccc3c(N4CCOCC4)c(C(C)=O)c(=O)oc3c2)ncc1F
unit abbrev: ng·h/mL
recorded measurement: 1200
